These data points were gathered from patent US12331068B2.

pIC50 values, listed per item
Target: CD73 on U138 human neuroglioma cells (Homo sapiens)
Construct: U138 cells were obtained from ATCC and cultured in DMEM with 10% FBS; host or cells: U138 human neuroglioma cells
Sequence (P21589 27-549): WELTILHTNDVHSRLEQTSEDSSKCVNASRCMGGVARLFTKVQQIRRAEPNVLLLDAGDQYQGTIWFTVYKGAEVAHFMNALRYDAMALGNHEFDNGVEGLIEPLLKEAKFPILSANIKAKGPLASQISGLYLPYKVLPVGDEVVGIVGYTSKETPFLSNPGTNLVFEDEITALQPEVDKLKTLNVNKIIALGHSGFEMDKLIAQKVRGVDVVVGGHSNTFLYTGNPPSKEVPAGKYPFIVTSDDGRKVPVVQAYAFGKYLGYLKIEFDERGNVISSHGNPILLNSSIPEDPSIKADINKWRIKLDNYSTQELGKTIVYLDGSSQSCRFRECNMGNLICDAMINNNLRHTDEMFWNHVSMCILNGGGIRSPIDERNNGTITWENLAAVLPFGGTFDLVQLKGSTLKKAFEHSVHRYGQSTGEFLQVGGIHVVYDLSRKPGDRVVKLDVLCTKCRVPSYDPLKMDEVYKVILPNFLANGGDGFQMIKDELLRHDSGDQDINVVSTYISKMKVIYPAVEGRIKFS
Assay: CD73 Cell-Based Assay (inorganic phosphate from AMP, malachite green)
Conditions: AMP substrate, 2 hours at 37° C., read-out: CD73 Cell-Based assay IC50
pIC50: −log10 of the molar value.

Please review the entries below; each comes with its answer.
>>> assay_value("C[C@@H](Nc1c(C#N)c(Cl)nc2c1cnn2[C@@H]1O[C@H](CS(=O)(=O)CP(=O)(O)O)[C@@H](O)[C@H]1O)c1ccc(C#N)cc1")
"7.00 to 8.00"
>>> assay_value("N#Cc1c(Cl)nc2c(ccn2[C@@H]2O[C@H](COP(=O)(O)CP(=O)(O)O)[C@@H](O)[C@H]2O)c1NC1CC(F)(F)C1")
"> 8.00"

Exercise: Query (compound): C[C@H](Nc1c(C#N)c(Cl)nc2c1cnn2[C@@H]1O[C@H](COP(=O)(O)CP(=O)(O)O)[C@@H](O)[C@H]1O)c1ccc(C#N)cc1 ; field requested: pIC50
Solution: > 8.00

Exercise: Same question for N#Cc1c(Cl)nc2c(ncn2[C@@H]2O[C@H](COP(=O)(O)CP(=O)(O)O)[C@@H](O)[C@H]2O)c1N1CC2CC2C1 (some centres unmarked) please.
Solution: > 8.00

Exercise: Another compound to check: N#Cc1c(Cl)nc2c(ncn2[C@@H]2O[C@H](CS(=O)(=O)CP(=O)(O)O)[C@@H](O)[C@H]2O)c1NC1CC(F)(F)C1
Solution: > 8.00

* * *

Target: Human CD73 (Homo sapiens, UniProt P21589)
Construct: purchased R&D Systems; host or cells: CHO cells
Sequence (P21589 27-549): as above
Experiment: CD73 Enzyme Assay (EnzChek PNP/MESG kinetic readout of AMP hydrolysis)
Format: biochemical
Conditions: 0.25 nM hCD73, 25 μM AMP; read-out: CD73 Enzyme Assay IC50
Recorded IC50 by entry

>>> assay_value("C[C@@H](Nc1c(C#N)c(Cl)nc2c1ccn2[C@@H]1O[C@H](COP(=O)(O)CP(=O)(O)O)[C@@H](O)[C@H]1O)c1ccc(F)cn1")
"< 10 nM"
>>> assay_value("N#Cc1c(Cl)nc2c(ccn2[C@@H]2O[C@H](CS(=O)(=O)CP(=O)(O)O)[C@@H](O)[C@H]2O)c1NC1CCCC1")
"< 10 nM"
>>> assay_value("C[C@H](Nc1c(C#N)c(Cl)nc2c1ncn2[C@@H]1O[C@H](COP(=O)(O)CP(=O)(O)O)[C@@H](O)[C@H]1O)c1ccccc1F")
"< 10 nM"
>>> assay_value("C[C@H](Nc1c(C#N)c(Cl)nc2c1ccn2[C@@H]1O[C@H](COP(=O)(O)CP(=O)(O)O)[C@@H](O)[C@H]1O)c1ccc(F)cn1")
"< 10 nM"

Exercise: Tell me the measured IC50 of C[C@@H](Nc1c(C#N)c(Cl)nc2c1cnn2[C@@H]1O[C@H](CS(=O)(=O)CP(=O)(O)O)[C@@H](O)[C@H]1O)c1ccc(C#N)cc1 , please.
Solution: 10 to 100 nM

Exercise: Moving on to N#Cc1c(Cl)nc2c(ccn2[C@@H]2O[C@H](COCP(=O)(O)O)[C@@H](O)[C@H]2O)c1NC1CC(F)(F)C1
Solution: < 10 nM
